B1: EHEE_rd4_0086 (parent)
chain: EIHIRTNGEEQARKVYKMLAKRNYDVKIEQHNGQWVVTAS

variants of: B1; experiment: folding stability dG (cDNA display proteolysis); higher = more stable; settings: PBS, room temperature
property: folding stability dG (kcal/mol)
Field format: number, assumed kcal/mol, no unit text.

{"sequence_input": "EIHIRTNGEEQARKVYKMLAKRNYDVKIEQHNGQWVVTAY [S40Y]", "output_unit": "kcal/mol", "folding stability dG": 1.96}
{"sequence_input": "EIHIQTNGEEQARKVYKMLAKRNYDVKIEQHNGQWVVTAS [R5Q]", "output_unit": "kcal/mol", "folding stability dG": 1.52}
{"sequence_input": "EIHIRTNGEEQARKVYKMLAKRNADVKIEQHNGQWVVTAS [Y24A]", "output_unit": "kcal/mol", "folding stability dG": 1.08}
{"sequence_input": "EIHIRTNGEEQARKVYKMLAKRNYDVKIIQHNGQWVVTAS [E29I]", "output_unit": "kcal/mol", "folding stability dG": 1.97}
{"sequence_input": "EIHIRTNGEEQARKVYKMLAKRNYDVKIEQHNGQWVVNAS [T38N]", "output_unit": "kcal/mol", "folding stability dG": 0.617}
{"sequence_input": "EIHIRTNGVEQARKVYKMLAKRNYDVKIEQHNGQWVVTAS [E9V]", "output_unit": "kcal/mol", "folding stability dG": 1.76}

[Q] Item EIHIRTNGEEQALKVYKMLAKRNYDVKIEQHNGQWVVTAS [R13L] : provide folding stability dG
[A] 1.89

[Q] Item EIHIRTNGEEQARKVYKMLAKRNYDVKIEQHNGQWVVTWS [A39W] : provide folding stability dG
[A] 2.2
